Ref: the supplement of paper PMC11061612

Test system: SBC-5 (Small Cell Lung Carcinoma);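 note: after 72 h of two-drug dosing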
test_details: Bliss excess, mean over the matrix (fraction); higher = more synergy
Bliss excess values, listed per item

compound	Bliss excess
CC1(C)CCC(CN2CCN(c3ccc(C(=O)NS(=O)(=O)c4ccc(NCC5CCOCC5)c([N+](=O)[O-])c4)c(Oc4cnc5[nH]ccc5c4)c3)CC2)=C(c2ccc(Cl)cc2)C1 [Venetoclax] + C1CN(CCC1(C(=O)N[C@@H](CCO)C2=CC=C(C=C2)Cl)N)C3=NC=NC4=C3C=CN4 [Capivasertib] (first compound max 1 µM, 7x7, partner max 3 µM)	-0.041
Cn1cnc2c(F)c(Nc3ccc(Br)cc3Cl)c(C(=O)NOCCO)cc21 [Selumetinib] + C[C@@H]1COCCN1C2=NC(=NC(=C2)C3(CC3)[S@](=N)(=O)C)C4=C5C=CNC5=NC=C4 [AZD6738] (first compound max 10 µM, 7x7, partner max 10 µM)	0.0096
NC1(C(=O)N[C@@H](CCO)c2ccc(Cl)cc2)CCN(c2ncnc3[nH]ccc23)CC1 [Capivasertib] + CC(C)n1c(=O)n(C)c2cnc3cc(F)c(-c4ccc(OCCCN5CCCCC5)nc4)cc3c21 [AZD1390] (first compound max 10 µM, 7x7, partner max 0.3 µM)	-0.0792
CC1(C)CCC(CN2CCN(c3ccc(C(=O)NS(=O)(=O)c4ccc(NCC5CCOCC5)c([N+](=O)[O-])c4)c(Oc4cnc5[nH]ccc5c4)c3)CC2)=C(c2ccc(Cl)cc2)C1 [Venetoclax] + C[C@@H](Nc1cc(F)cc(F)c1)c1cc(C(=O)N(C)C)cc2c(=O)cc(N3CCOCC3)oc12 [AZD8186] (first compound max 1 µM, 7x7, partner max 3 µM)	-0.022
Cc1c2c(nn1C)CSCc1cc(n(C)n1)CSc1cc(c3ccccc3c1)OCCCc1c(C(=O)O)n(C)c3c-2c(Cl)ccc13 [AZD5991] + Cn1cnc2c(F)c(Nc3ccc(Br)cc3Cl)c(C(=O)NOCCO)cc21 [Selumetinib] (first compound max 1 µM, 7x7, partner max 3 µM)	0
Cc1cc2ncnn2cc1Nc1ncc2c(n1)n(C1CCOCC1)c(=O)n2C [AZD7648] + C=CCn1c(=O)c2cnc(Nc3ccc(N4CCN(C)CC4)cc3)nc2n1-c1cccc(C(C)(C)O)n1 [AZD1775] (first compound max 10 µM, partner max 1 µM)	-0.0136
CN(CCO)CC[C@H](CSc1ccccc1)Nc1ccc(S(=O)(=O)NC(=O)c2ccc(N3CCC([C@@H](O)c4ccccc4-c4ccc(Cl)cc4)CC3)cc2)cc1S(=O)(=O)C(F)(F)F [AZD4320] + C=CCn1c(=O)c2cnc(Nc3ccc(N4CCN(C)CC4)cc3)nc2n1-c1cccc(C(C)(C)O)n1 [AZD1775] (first compound max 1 µM, partner max 1 µM)	0.0264
COc1cccc2c1C(=O)c1c(O)c3c(c(O)c1C2=O)C[C@@](O)(C(=O)CO)C[C@@H]3O[C@H]1C[C@H](N)[C@H](O)[C@H](C)O1 [Doxorubicin] + Cc1cc2ncnn2cc1Nc1ncc2c(n1)n(C1CCOCC1)c(=O)n2C [AZD7648] (first compound max 1 µM, 7x7, partner max 10 µM)	0.0341

====

System: DK-MG (Glioblastoma)
test_details: combination Emax (second highest fraction inhibited in the dose matrix, 72 h); higher = more inhibition; extreme values may be limits of the assay

compound	combination Emax
COc1nnc2ccc(N3CCC(c4ccc(OCCN5CCN(C)C(=O)[C@H]5C)cc4)CC3)nn12 [AZD5153] + Cn1cnc2c(F)c(Nc3ccc(Br)cc3Cl)c(C(=O)NOCCO)cc21 [Selumetinib] (first compound max 1 µM, 7x7, partner max 10 µM)	0.652
CCN(CCO)CCCOc1ccc2c(Nc3cc(CC(=O)Nc4cccc(F)c4)[nH]n3)ncnc2c1 [AZD2811] + C[C@@H]1COCCN1C2=NC(=NC(=C2)C3(CC3)[S@](=N)(=O)C)C4=C5C=CNC5=NC=C4 [AZD6738] (first compound max 1 µM, 7x7, partner max 10 µM)	0.308
CC(=O)c1c(C)c2cnc(Nc3ccc(N4CCNCC4)cn3)nc2n(C2CCCC2)c1=O [Palbociclib] + Cc1c2c(nn1C)CSCc1cc(n(C)n1)CSc1cc(c3ccccc3c1)OCCCc1c(C(=O)O)n(C)c3c-2c(Cl)ccc13 [AZD5991] (first compound max 10 µM, 7x7, partner max 1 µM)	0.366
